Reference source for all entries: paper PMC10934055

- measurement target: α-Glucosidase (Saccharomyces cerevisiae, UniProt P53341)
- Construct: purchased Sigma (Sigma-Aldrich) G5003
- Sequence (P53341 whole entry): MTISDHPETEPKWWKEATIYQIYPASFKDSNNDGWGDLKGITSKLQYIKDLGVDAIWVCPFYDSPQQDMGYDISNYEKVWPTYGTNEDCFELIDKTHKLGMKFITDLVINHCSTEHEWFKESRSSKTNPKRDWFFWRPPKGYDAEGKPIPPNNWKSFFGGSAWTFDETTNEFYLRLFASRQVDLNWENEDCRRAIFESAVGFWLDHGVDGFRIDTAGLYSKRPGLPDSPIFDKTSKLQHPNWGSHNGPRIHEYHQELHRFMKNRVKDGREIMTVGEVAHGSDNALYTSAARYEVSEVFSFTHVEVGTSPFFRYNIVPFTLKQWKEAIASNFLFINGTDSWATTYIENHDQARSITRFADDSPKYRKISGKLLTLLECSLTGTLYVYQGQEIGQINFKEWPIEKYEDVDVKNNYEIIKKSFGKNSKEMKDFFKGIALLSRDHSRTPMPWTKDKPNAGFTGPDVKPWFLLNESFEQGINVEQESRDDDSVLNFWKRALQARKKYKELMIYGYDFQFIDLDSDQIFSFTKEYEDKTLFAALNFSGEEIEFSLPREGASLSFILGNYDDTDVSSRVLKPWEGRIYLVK
- method description: biochemical
- experimental setup: baker's yeast α-glucosidase, p-NPG, pH 6.86, 37 °C; read-out: IC50 (α-glucosidase inhibitory bioassay)
quantity kind: IC50 (µM)
Response body: numeric value in µM, unit text excluded.

Entry `CC(=O)O[C@H]1CC[C@]2(C)[C@H]3CC=C4[C@@H]5CC(C)(C)CC[C@]5(C(=O)O)CC[C@@]4(C)[C@]3(C)CC[C@H]2C1(C)C` — recorded IC50 = 16.8

* * *

- measurement target: α-Glucosidase (Saccharomyces cerevisiae);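 further: yeast α-glucosidase premixed with inhibitor in phosphate buffer for 15 min at 37 °C, then a further 15 min reaction with p-NPG substrate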
- Construct: purchased Sigma (Sigma-Aldrich) G5003
- method description: biochemical
- experimental setup: concentration 4.0 μg·mL-1; read-out: α-glucosidase inhibition rate
Respond with 1 for inhibition at 4 µg/mL values of 9% and above, -1 for values below.

The examples below pair each entry with its known result.
API: above_or_equal(metric=inhibition at 4 µg/mL, cutoff=9%) for item C=C(C)[C@@H]1CC[C@]2(C(=O)O)CC[C@]3(C)[C@H](CC[C@@H]4[C@@]5(C)CCC(=O)C(C)(C)[C@@H]5CC[C@]43C)[C@@H]12 [Compound 6, betulonic acid]
1

inhibition at 4 µg/mL >= 9% for CC(C)(O)[C@@H]1CC[C@]2(C)CC[C@]3(C)[C@H](CC[C@@H]4[C@@]5(C)CCC(=O)C(C)(C)[C@@H]5CC[C@]43C)[C@@H]12 [Compound 5, 20-hydroxy-lupan-3-one] ?
1

Does inhibition at 4 µg/mL meet or surpass 9% for CC(C)(O)[C@@H]1CC[C@]2(C)CC[C@]3(C)[C@H](CC[C@@H]4[C@@]5(C)CC[C@H](O)C(C)(C)[C@@H]5CC[C@]43C)[C@@H]12 [Compound 3, monogynol A] ?
-1

Is reported inhibition at 4 µg/mL greater than or equal to 9% here: C=C(C)[C@@H]1CC[C@]2(C)CC[C@]3(C)[C@H](CC[C@@H]4[C@@]5(C)CC[C@H](O)C(C)(C)[C@@H]5CC[C@]43C)[C@@H]12 [Compound 4, lupeol]
1

Then there is this molecule:
Check if inhibition at 4 µg/mL >= 9% (inclusive). Item: CC(=O)O[C@H]1CC[C@]2(C)[C@H]3CC[C@@H]4[C@@H]([C@@](C)(O)CCC=C(C)C)CC[C@@]4(C)[C@]3(C)CC[C@H]2C1(C)C [Compound 8, dammar-24-ene-3β-acetoxy-20S-ol]
-1
